Origin of values: patent EP2608671B1

- System: LNCaP
- ASSAY_INFO: cells
- RUN_CONDITIONS: Homo sapiens, 96 h, read-out: IC50 ± SEM (nM), LNCaP
For each record, check the reported IC50: if it is below 60 nM write y, else write n.

The examples below pair each entry with its known result.
{"columns": ["MOLECULE", "QUALITATIVE_LABEL"],
 "data": [
  ["COc1cc(C(=O)c2cn(C(c3ccccc3)(c3ccccc3)c3ccccc3)c(Nc3ccccc3)n2)cc(OC)c1OC", "n"],
  ["CN(C)c1ccc(-c2nc(C(=O)c3ccc(F)cc3)cn2S(=O)(=O)c2ccccc2)cc1 [11gb]", "y"],
  ["Cc1ccc(-c2nc(C(=O)c3ccc(F)cc3)cn2S(=O)(=O)c2ccccc2)cc1 [11db]", "y"],
  ["COc1cc(/C(=N\\O)c2csc(-c3ccccc3)n2)cc(OC)c1OC [2e-trans]", "n"]
]}

Req: is_below(IC50, 60 nM) for COc1cc(C(=O)c2csc(-c3ccc(CNC(=O)OC(C)(C)C)cc3)n2)cc(OC)c1OC [68a] ?
Resp: n

Req: Lab note: IC50 threshold 60 nM. Does this molecule come in strictly under it? COc1cc(C(=O)c2c[nH]c(-c3ccc(F)cc3)n2)cc(OC)c1OC [12ba]
Resp: n

Req: Please state whether IC50 is below 60 nM for `COc1cc(C(=NC#N)c2csc(-c3ccccc3)n2)cc(OC)c1OC`
Resp: y

Req: A record lists `c1ccc(Nc2nccn2C(c2ccccc2)(c2ccccc2)c2ccccc2)cc1` . Is its IC50 below 60 nM?
Resp: n
